# TARGET OR SYSTEM: AT1R (Homo sapiens)
# Sequence (P30556 whole entry): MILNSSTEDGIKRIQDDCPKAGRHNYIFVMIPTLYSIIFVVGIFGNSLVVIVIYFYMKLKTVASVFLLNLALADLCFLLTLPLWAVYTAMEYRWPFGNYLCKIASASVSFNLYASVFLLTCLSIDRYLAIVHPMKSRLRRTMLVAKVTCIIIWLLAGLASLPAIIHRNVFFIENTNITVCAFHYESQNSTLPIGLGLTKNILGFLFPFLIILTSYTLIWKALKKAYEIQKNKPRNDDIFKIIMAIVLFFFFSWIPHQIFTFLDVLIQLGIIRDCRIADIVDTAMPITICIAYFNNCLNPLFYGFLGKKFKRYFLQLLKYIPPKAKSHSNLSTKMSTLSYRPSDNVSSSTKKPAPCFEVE
# PROCEDURE TEXT: β-arrestin2 recruitment BRET (β-arrestin2-RLucII/rGFP-CAAX) in HEK293 cells expressing AT1R
# Assay type: cell-based
# Design: expressed in transfected cells; host or cells: HEK293 cells, transient PEI transfection
# ASSAY CONDITIONS: HEK293 cells transiently expressing AT1R; β-arrestin2-RLucII/rGFP-CAAX BRET; read 10 min after ligand; mean ± SEM of at least three to five independent experiments; SEM; read-out: EC50 βarr2
pEC50: −log10 of the molar value.
ENDPOINT: pEC50

(a) CC[C@H](C)[C@H](NC(=O)[C@H](Cc1ccc(O)cc1)NC(=O)[C@@H](NC(=O)[C@H](CCCNC(=N)N)NC(=O)[C@@H](N)CC(=O)O)C(C)C)C(=O)N[C@@H](Cc1c[nH]cn1)C(=O)N1CCC[C@H]1C(=O)N[C@@H](Cc1cccc2ccccc12)C(=O)O [compound 8]
(b) CC[C@H](C)[C@H](NC(=O)[C@H](Cc1ccc(O)cc1)NC(=O)[C@@H](NC(=O)[C@H](CCCNC(=N)N)NC(=O)[C@@H](N)CC(=O)O)C(C)C)C(=O)N[C@@H](Cc1c[nH]cn1)C(=O)N1CCC[C@H]1C(=O)N[C@@H](Cc1ccncc1)C(=O)O [compound 17]
Q: Input pair: a , b . Output: entry with lower pEC50. Refer to your chosen entry by its label in the reply.
Ans: b
(b: 8.28, a: 8.68)

(I) CC[C@H](C)[C@H](NC(=O)[C@H](Cc1ccc(O)cc1)NC(=O)[C@@H](NC(=O)[C@H](CCCNC(=N)N)NC(=O)[C@@H](N)CC(=O)O)C(C)C)C(=O)N[C@@H](Cc1c[nH]cn1)C(=O)N1CCC[C@H]1C(=O)N[C@@H](Cc1ccccn1)C(=O)O [compound 19]
(II) C=CCOc1ccc(C[C@H](NC(=O)[C@@H]2CCCN2C(=O)[C@H](Cc2c[nH]cn2)NC(=O)[C@@H](NC(=O)[C@H](Cc2ccc(O)cc2)NC(=O)[C@@H](NC(=O)[C@H](CCCNC(=N)N)NC(=O)[C@@H](N)CC(=O)O)C(C)C)[C@@H](C)CC)C(=O)O)cc1 [compound 10]
Q: Param metric = pEC50; output whichever of I , II has the minimum value. The response must carry the label of the picked entry.
Ans: II

---

pEC50 for assorted compounds
# TARGET OR SYSTEM: AT1R (Homo sapiens)
# PROCEDURE TEXT: Gαq activation BRET (GABY sensor) in HEK293 cells expressing AT1R
# Assay type: cell-based
# Parameters: expressed in transfected cells; host or cells: HEK293 cells, transient PEI transfection
# ASSAY CONDITIONS: HEK293 cells transiently expressing human AT1R; Gαq-RlucII/Gβ1/Gγ1-GFP10 (GABY) BRET sensor; BRET read 10 min after ligand; mean ± SEM of at least three to five independent experiments; SEM
# Description: We utilized a clonal cell line HEK293, referred to hereafter as HEK293 cells, which has been previously described.[7],[8] […] On the day of the experiment, each well was washed with 80 µL of Tyrode’s buffer (140 mM NaCl, 2.7 mM KCl, 1 mM CaCl2, 12 mM NaHCO3, 5.6 mM D-glucose, 0.5 mM MgCl2, 0.37 mM NaH2PO4, 25 mM Hepes (pH 7.4)). […] Cells were then stimulated with increasing doses of the indicated ligand, and BRET signals were measured using a Tristar2 (Berthold) microplate reader 10 min later. […]
Peptide text beside a SMILES is read from it.
Convention used: pEC50 is expressed as -log10 of the molar concentration.

• CC[C@H](C)[C@H](NC(=O)[C@H](Cc1ccc(O)cc1)NC(=O)[C@@H](NC(=O)[C@H](CCCN=C(N)N)NC(=O)[C@@H](N)CC(=O)O)C(C)C)C(=O)N[C@@H](Cc1c[nH]cn1)C(=O)N1CCC[C@H]1C(=O)N[C@@H](Cc1c[nH]c2ccccc12)C(=O)O [compound 21] (H-DRVYIHPW-OH) = 8.33

Turning now to a further compound:
Q: Identify measured pEC50 associated with CC[C@H](C)[C@H](NC(=O)[C@H](Cc1ccc(O)cc1)NC(=O)[C@@H](NC(=O)[C@H](CCCN=C(N)N)NC(=O)[C@@H](N)CC(=O)O)C(C)C)C(=O)N[C@@H](Cc1c[nH]cn1)C(=O)N1CCC[C@H]1C(=O)N[C@@H](Cc1ccc(O)cc1)C(=O)O [24c] (H-DRVYIHPY-OH)
Ans: 8.38
